- Test name: Inhibition concentration (binding affinity) against […] melanocortin receptor 4 by displacement of [125I]NDP-alpha-MSH from the human receptors expressed in CHO cells
Observed property: pIC50
Lab note: report pIC50 as minus log10 of the concentration in molar units, number only.

Query: Find the measured pIC50 of CN1C[C@H]2CC[C@@H]1[C@H](C(=O)N[C@H](Cc1ccc(F)cc1)C(=O)N1CCC(C(=O)NC(C)(C)C)(C3CCCCC3)CC1)C2 and report it.
Result: 5.15
